Just for reference, patent US20100267825A1 is where these values come from.

- measurement-protocol: In vitro catalase activity (colorimetric peroxidase/ABTS-coupled assay)
- Type: biochemical
- cond: salen-metal complexes; relative to C7 (EUK-8) set at 100%; 10 μM compound, 100 μM hydrogen peroxide, pH 7.4, hydrogen peroxide consumed at 20 minutes
Threshold check on Relative Catalase Rate: at or above 90% gives t, strictly below gives f.

{"compound": "COc1ccc(C=NCCN=Cc2ccc(OC)cc2[O-])c([O-])c1.[Cl-].[Mn+3]", "class": "f"}
{"compound": "CC(=O)[O-].COc1cccc(C=NCCN=Cc2cccc(OC)c2[O-])c1[O-].[Mn+3]", "class": "t"}
{"compound": "[Cl-].[Mn+3].[O-]c1ccccc1C=NCCN=Cc1ccccc1[O-] [C7 (EUK-8)]", "class": "t"}
{"compound": "[Cl-].[Mn+3].[O-]c1ccccc1CNCCNCc1ccccc1[O-]", "class": "f"}
{"compound": "CC(=O)[O-].[Mn+3].[O-]c1ccccc1CNCCNCc1ccccc1[O-]", "class": "f"}

Incoming: Given the entry CC(=O)[O-].[Mn+3].[O-]c1c2cccc1OCCOCCOCCOc1cccc(c1[O-])C=Nc1ccccc1N=C2 , answer whether its Relative Catalase Rate meets or surpasses 90%.
Outgoing: t
